conditions: in n-propanol, 293.15 K
Metric: solubility (mole fraction)
Answers are plain numbers.

Consider the compound COC(=O)C1=C(C)NC(C)=C(C(=O)OCC(C)C)C1c1ccccc1[N+](=O)[O-] (stereo unspecified) and give its recorded solubility (mole fraction).
0.00657

----------
conditions: in isopropanol, 313.15 K
Metric: solubility (mole fraction)
Give bare numbers.

Consider the compound COC(=O)C1=C(C)NC(C)=C(C(=O)OCC(C)C)C1c1ccccc1[N+](=O)[O-] (stereo unspecified) and give its recorded solubility (mole fraction).
0.0152

----------
conditions: in water, 298.15 K
Metric: solubility (mole fraction)

Consider the molecule COC(=O)C1=C(C)NC(C)=C(C(=O)OCC(C)C)C1c1ccccc1[N+](=O)[O-] (stereo unspecified) and give its recorded solubility (mole fraction).
1.2e-05

----------
conditions: in isopropanol, 308.15 K
Metric: solubility (mole fraction)
Give bare numbers.

Consider the compound COC(=O)C1=C(C)NC(C)=C(C(=O)OCC(C)C)C1c1ccccc1[N+](=O)[O-] (stereo unspecified) and give its recorded solubility (mole fraction).
0.0129

----------
details: in acetonitrile, 293.15 K
Metric: solubility (mole fraction)
Answers are plain numbers.

Consider the compound COC(=O)C1=C(C)NC(C)=C(C(=O)OCC(C)C)C1c1ccccc1[N+](=O)[O-] (stereo unspecified) and give its recorded solubility (mole fraction).
0.0144

----------
details: in toluene, 288.15 K
Metric: solubility (mole fraction)
One number for each entry.

Consider the compound COC(=O)C1=C(C)NC(C)=C(C(=O)OCC(C)C)C1c1ccccc1[N+](=O)[O-] (stereo unspecified) and give its recorded solubility (mole fraction).
0.00218

----------
conditions: in n-butanol, 318.15 K
Metric: solubility (mole fraction)
Numbers only.

Consider the molecule COC(=O)C1=C(C)NC(C)=C(C(=O)OCC(C)C)C1c1ccccc1[N+](=O)[O-] (stereo unspecified) and give its recorded solubility (mole fraction).
0.0202

----------
conditions: in ethyl acetate, 303.15 K
Metric: solubility (mole fraction)
One number for each entry.

Consider the molecule COC(=O)C1=C(C)NC(C)=C(C(=O)OCC(C)C)C1c1ccccc1[N+](=O)[O-] (stereo unspecified) and give its recorded solubility (mole fraction).
0.0316

----------
details: in ethanol, 318.15 K
Metric: solubility (mole fraction)
One number for each entry.

Consider the compound COC(=O)C1=C(C)NC(C)=C(C(=O)OCC(C)C)C1c1ccccc1[N+](=O)[O-] (stereo unspecified) and give its recorded solubility (mole fraction).
0.0134

----------
details: in toluene, 308.15 K
Metric: solubility (mole fraction)
One number for each entry.

Consider the molecule COC(=O)C1=C(C)NC(C)=C(C(=O)OCC(C)C)C1c1ccccc1[N+](=O)[O-] (stereo unspecified) and give its recorded solubility (mole fraction).
0.00428

----------
conditions: in n-butanol, 303.15 K
Metric: solubility (mole fraction)
One number for each entry.

Consider the molecule COC(=O)C1=C(C)NC(C)=C(C(=O)OCC(C)C)C1c1ccccc1[N+](=O)[O-] (stereo unspecified) and give its recorded solubility (mole fraction).
0.0129

----------
details: in toluene, 318.15 K
Metric: solubility (mole fraction)
Numbers only.

Consider the compound COC(=O)C1=C(C)NC(C)=C(C(=O)OCC(C)C)C1c1ccccc1[N+](=O)[O-] (stereo unspecified) and give its recorded solubility (mole fraction).
0.00588

----------
conditions: in isopropanol, 278.15 K
Metric: solubility (mole fraction)
Answers are plain numbers.

Consider the compound COC(=O)C1=C(C)NC(C)=C(C(=O)OCC(C)C)C1c1ccccc1[N+](=O)[O-] (stereo unspecified) and give its recorded solubility (mole fraction).
0.00467
